Inhibition zone values by entry
- System: Acinetobacter baumannii isolates
- Protocol summary: Antimicrobial susceptibility test, disc diffusion method (CLSI M100-S24)
- Format: cell-based
- Reported conditions: isolate AB4; disc diffusion

Structure smiles string	Inhibition zone
NC[C@@H]1O[C@H](O[C@H]2[C@@H](O)[C@H](O[C@@H]3[C@@H](O)[C@H](N)C[C@H](N)[C@H]3O[C@H]3O[C@H](CN)[C@@H](O)[C@H](O)[C@H]3N)O[C@@H]2CO)[C@H](N)[C@@H](O)[C@@H]1O	27 mm
CN(C)[C@@H]1C(O)=C(C(N)=O)C(=O)[C@@]2(O)C(O)=C3C(=O)c4c(O)cccc4[C@@](C)(O)[C@H]3C[C@@H]12	21 mm
NCC[C@H](O)C(=O)N[C@@H]1C[C@H](N)[C@@H](O[C@H]2O[C@H](CN)[C@@H](O)[C@H](O)[C@H]2O)[C@H](O)[C@H]1O[C@H]1O[C@H](CO)[C@@H](O)[C@H](N)[C@H]1O	21 mm

----------
- Test system: Acinetobacter baumannii isolates
- Protocol summary: Antimicrobial susceptibility test, disc diffusion method (CLSI M100-S24)
- Type: cell-based
- Reported conditions: isolate AB4; disc diffusion
Parameter measured: Inhibition zone (mm)

> print(dat)
                    structure.smiles.string  measured
1  CO/N=C(\C(=O)N[C@@H]1C(=O)N2C(C(=O)O)=C(COC(C)=O)CS[C@H]12)c1csc(N)n1         8
2  O=C(N[C@H](CO)[C@H](O)c1ccc([N+](=O)[O-])cc1)C(Cl)Cl        23
3  CC(C)(O/N=C(\C(=O)N[C@@H]1C(=O)N2C(C(=O)[O-])=C(C[n+]3ccccc3)CS[C@H]12)c1csc(N)n1)C(=O)O        21

----------
- Test system: Acinetobacter baumannii isolates
- Protocol summary: Antimicrobial susceptibility test, disc diffusion method (CLSI M100-S24)
- Type: cell-based
- Reported conditions: isolate AB1; disc diffusion
Entries and their Inhibition zone values follow.

Compound	Inhibition zone (mm)
NC[C@@H]1O[C@H](O[C@H]2[C@@H](O)[C@H](O[C@@H]3[C@@H](O)[C@H](N)C[C@H](N)[C@H]3O[C@H]3O[C@H](CN)[C@@H](O)[C@H](O)[C@H]3N)O[C@@H]2CO)[C@H](N)[C@@H](O)[C@@H]1O	23
CO/N=C(\C(=O)N[C@@H]1C(=O)N2C(C(=O)[O-])=C(C[N+]3(C)CCCC3)CS[C@H]12)c1csc(N)n1 [FEP, Cefepime]	20

----------
- Tested on: Acinetobacter baumannii isolates
- Protocol summary: Antimicrobial susceptibility test, disc diffusion method (CLSI M100-S24)
- Format: cell-based
- Reported conditions: isolate AB32; disc diffusion
Inhibition zone values by entry

Structure smiles string	Target or test system	Inhibition zone, mm
CC(C)(O/N=C(\C(=O)N[C@@H]1C(=O)N2C(C(=O)[O-])=C(C[n+]3ccccc3)CS[C@H]12)c1csc(N)n1)C(=O)O	Acinetobacter baumannii isolates	8
CC1(C)S[C@@H]2[C@H](NC(=O)[C@H](N)c3ccc(O)cc3)C(=O)N2[C@H]1C(=O)O	Acinetobacter baumannii isolates	8
NC[C@@H]1O[C@H](O[C@H]2[C@@H](O)[C@H](O[C@@H]3[C@@H](O)[C@H](N)C[C@H](N)[C@H]3O[C@H]3O[C@H](CN)[C@@H](O)[C@H](O)[C@H]3N)O[C@@H]2CO)[C@H](N)[C@@H](O)[C@@H]1O	Acinetobacter baumannii isolates	10
C[C@@H](O)[C@H]1C(=O)N2C(C(=O)O)=C(SCCN=CN)C[C@H]12	Acinetobacter baumannii isolates	18
C[C@H]1[C@H](NC(=O)/C(=N\OC(C)(C)C(=O)O)c2csc(N)n2)C(=O)N1S(=O)(=O)O	Acinetobacter baumannii isolates	8
